Origin of measurements: patent US20230106715A1

Entries and their IC50 values follow.
- Assayed System: T1, human Siglec15-Fc protein (human)
- T1 construct: In house made; also called recombinant human Siglec15 protein with human IgG1 Fc at the C-terminus
- T1 sequence (chain, as listed by the source limits assumed): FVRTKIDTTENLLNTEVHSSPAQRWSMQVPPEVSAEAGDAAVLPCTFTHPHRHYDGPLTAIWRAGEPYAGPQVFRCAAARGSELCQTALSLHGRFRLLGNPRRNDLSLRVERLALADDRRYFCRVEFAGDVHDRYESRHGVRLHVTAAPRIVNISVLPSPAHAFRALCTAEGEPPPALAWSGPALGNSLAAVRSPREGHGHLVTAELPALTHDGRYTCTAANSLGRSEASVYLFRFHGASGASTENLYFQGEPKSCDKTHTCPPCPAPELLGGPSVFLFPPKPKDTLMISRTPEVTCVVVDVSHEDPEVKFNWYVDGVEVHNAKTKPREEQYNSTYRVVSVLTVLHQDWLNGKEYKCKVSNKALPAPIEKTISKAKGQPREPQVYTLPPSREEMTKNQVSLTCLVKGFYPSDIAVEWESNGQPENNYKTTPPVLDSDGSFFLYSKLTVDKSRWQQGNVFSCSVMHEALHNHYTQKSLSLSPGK
- Assay Text: competitive ELISA: biotin-labeled human Siglec15-Fc in solution, competitor coated benchmark
- Procedure: The abilities of the anti-Siglec15 antibodies of the disclosure to block benchmark-human Siglec15 binding were measured in a competitive ELISA assay. […] Finally, TMB was added and the reaction was stopped using 1M H₂SO₄, and the absorbance of each well was read on a microplate reader using dual wavelength mode with 450 nm for TMB and 630 nm as the reference wavelength, then the OD (450-630) values were plotted against antibody concentration. […]
Write the numeric value and follow it with the unit.

Here is how some binders turned out for IC50.
- Binder: "B2G12H3E8 (antibody, V domains shown, Mouse monoclonal antibody from hybridoma; also called mouse B2G12H3E8) VH: QVQLKQSGAELVRPGTSVQMSCKAVGYTFTNYWIGWVKQRPGHGLEWVGDIHPGINYTNNNEKFRGKATLTADTSSSTAYMQLRGLTSDDSAIYYCARVDYDYDGSYIMDYWGQGTSVTVSS VL: QIVLSQSPALLSASPGEKVTMTCRASSSVSYMYWYQQKPGSSPKPWIYATSNLTSGVPARFSGSGSGTSYSLTISRVEAEDAATYFCQQWNSKPWTFGGGSKLEIR"
  Endpoint Value: "0.063 nM"
- Binder: "B2H2H1H7 (antibody, V domains shown, Mouse monoclonal antibody from hybridoma; also called mouse B2H2H1H7; B2H2H1A7) VH: QVQLQQSGAELVRPGTSVQMSCKAAGYTFTNYWIGWVKQRPGHGLEWVGDIHPGINYTNNNEKFRGKATLTADTSSSTAYMQLRGLTSDDSAIYYCARVDYDYDGSYIMDYWGQGTSVTVSS VL: QIILSQSPALLSASPGEKVTMTCRASSSVSYMYWYQQKPGSSPKPWIYATSNLTSGVPARFSGSGSGTSYSLTISRVEAEDAATYFCQQWNSKPWTFGGGSRLEIR"
  Endpoint Value: "0.0642 nM"

QUERY: Suppose we examine the binder anti-Siglec15 benchmark (ch5G12) (antibody, human IgG1, kappa, V domains shown, ch5G12 (US 20190202912A1); also called BM; Siglec15-ch5G9) VH: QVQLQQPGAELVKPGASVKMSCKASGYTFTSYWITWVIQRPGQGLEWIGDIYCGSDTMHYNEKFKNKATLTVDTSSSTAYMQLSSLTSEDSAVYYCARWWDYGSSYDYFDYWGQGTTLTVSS VL: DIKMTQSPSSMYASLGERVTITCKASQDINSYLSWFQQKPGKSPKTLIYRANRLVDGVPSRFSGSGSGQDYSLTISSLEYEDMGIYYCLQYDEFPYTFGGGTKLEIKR ; what IC50 value has been reported?
RESULT: 0.447 nM

QUERY: Give the measured IC50 of B2D7H7A3C1 (antibody, V domains shown, Mouse monoclonal antibody from hybridoma; also called mouse B2D7H7A3C1) VH: QVQLQQSGAELVRPGTSVQMSCKAAGYTFTNYWIGWVKQRPGHGLEWVGDIHPGINYTNNNEKFRGKATLTADTSSNTAYMQLRGLTSDDSAIYYCARVDYDYDGSYIMDYWGQGTSVTVSS VL: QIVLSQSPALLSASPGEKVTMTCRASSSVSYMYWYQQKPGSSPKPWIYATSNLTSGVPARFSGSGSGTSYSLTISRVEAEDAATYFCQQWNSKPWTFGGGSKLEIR .
RESULT: 0.081 nM
